# System: KM12 colon
# METHOD: NCI tumour cell line growth inhibition, 48 h; in the data active = GI50 below about 0.43 µM; inactive = the rest
Lab note: assign the record to one of label 1 (active), label 0 (inactive)

Recorded results for 4 molecules are shown here.
{"columns": ["MOLECULE", "LABEL VALUE"],
 "data": [
  ["O=C(Cc1ccc(Nc2ccnc(C(F)(F)F)c2)cc1)Nc1cc(Cl)ccc1O", "label 0"],
  ["O=C(NO)c1ccc(Cn2c(=O)n(-c3ccccc3)c(=O)c3ccccc32)cc1", "label 0"],
  ["O=C1CC(c2ccsc2)c2snc(-c3ccc(Cl)cc3)c2N1 (stereo not given)", "label 1"],
  ["O=C(c1ccco1)c1nc2cc(C(F)(F)F)ccc2[n+]([O-])c1C(F)(F)F", "label 0"]
]}

Now for another entry.
Q: Check the results log: what was the call for COc1ccc(C2=N[C@@H](c3ccc(Cl)cc3)[C@@H](c3ccc(Cl)cc3)N2C(=O)N2CCNC(=O)C2)c(OC(C)C)c1 ?
Ans: label 0
